Test system: K-562 leukemia
Assay: NCI-60 one-dose screen, 48 h (100 = growth as untreated, 0 = no growth, -100 = all killed)
Conditions: 10 µM unless noted
The panel holds about 83,000 compounds, 20% with a hit somewhere; the sample as a whole holds those more often.
Classify as follows. Reported growth greater than or equal to 30%: rule met. Reported growth below: rule not met.

INSERT INTO measurements (compound, measurement_target, class_assignment) VALUES
  ('COc1ccc(C(=O)/C=C/c2ccc(OCc3ccc(C)cc3)c(OC)c2)cc1OC', 'K-562 leukemia', 'rule not met'),
  ('COc1cc(-c2nc3ccc(-c4nnc(SCC(=O)Nc5ccc(C(=O)/C=C/c6ccc(Cl)cc6)cc5)o4)cc3[nH]2)cc(OC)c1OC', 'K-562 leukemia', 'rule met'),
  ('[Cl][Ru].c1ccc(-c2cccc(-c3ccccn3)n2)nc1.c1ccc(-c2ccnc3c2ccc2c(-c4ccccc4)ccnc23)cc1', 'K-562 leukemia', 'rule met'),
  ('CNC(=O)c1cc(-c2ccc(NC(=O)Nc3ccc(N4CCOCC4)c(C(F)(F)F)c3)cc2)nc2cccnc12', 'K-562 leukemia', 'rule met'),
  ('Nc1cc(-c2c[nH]c3ccc(F)cc23)nc2cc(-c3c[nH]c4ccc(F)cc34)nn12', 'K-562 leukemia', 'rule not met'),
  ('N#Cc1c(-c2ccc(Cl)cc2)nc2c(-c3ccccc3)c(Nc3ccccc3)nn2c1N', 'K-562 leukemia', 'rule met'),
  ('N#Cc1nc(-c2ccccc2)oc1N1CCC(CO)C1 (centres undefined)', 'K-562 leukemia', 'rule met'),
  ('CC(O)C(NC(=O)C1CCCN1C(=O)CNC(=O)C1CC(=O)NCC(=O)NC(Cc2c[nH]c3ccccc23)C(=O)NC(Cc2ccc(O)cc2)C(=O)NCC(=O)NC(CO)C(=O)NC(CCC(N)=O)C(=O)NC(Cc2c[nH]c3ccccc23)C(=O)N1)C(=O)NCC(=O)NC(CCC(N)=O)C(=O)NC(CCCNC(=N)N)C(=O)NC(CC(=O)O)C(=O)O (centres undefined)', 'K-562 leukemia', 'rule met'),
  ('Fc1ccc(-c2cc3nc(C(Cl)Cl)nc(-c4ccccc4)n3n2)cc1', 'K-562 leukemia', 'rule not met');
